Test Target: AHR (Mus musculus, UniProt P30561)
Sequence (P30561 whole entry F348L/P471L, form open): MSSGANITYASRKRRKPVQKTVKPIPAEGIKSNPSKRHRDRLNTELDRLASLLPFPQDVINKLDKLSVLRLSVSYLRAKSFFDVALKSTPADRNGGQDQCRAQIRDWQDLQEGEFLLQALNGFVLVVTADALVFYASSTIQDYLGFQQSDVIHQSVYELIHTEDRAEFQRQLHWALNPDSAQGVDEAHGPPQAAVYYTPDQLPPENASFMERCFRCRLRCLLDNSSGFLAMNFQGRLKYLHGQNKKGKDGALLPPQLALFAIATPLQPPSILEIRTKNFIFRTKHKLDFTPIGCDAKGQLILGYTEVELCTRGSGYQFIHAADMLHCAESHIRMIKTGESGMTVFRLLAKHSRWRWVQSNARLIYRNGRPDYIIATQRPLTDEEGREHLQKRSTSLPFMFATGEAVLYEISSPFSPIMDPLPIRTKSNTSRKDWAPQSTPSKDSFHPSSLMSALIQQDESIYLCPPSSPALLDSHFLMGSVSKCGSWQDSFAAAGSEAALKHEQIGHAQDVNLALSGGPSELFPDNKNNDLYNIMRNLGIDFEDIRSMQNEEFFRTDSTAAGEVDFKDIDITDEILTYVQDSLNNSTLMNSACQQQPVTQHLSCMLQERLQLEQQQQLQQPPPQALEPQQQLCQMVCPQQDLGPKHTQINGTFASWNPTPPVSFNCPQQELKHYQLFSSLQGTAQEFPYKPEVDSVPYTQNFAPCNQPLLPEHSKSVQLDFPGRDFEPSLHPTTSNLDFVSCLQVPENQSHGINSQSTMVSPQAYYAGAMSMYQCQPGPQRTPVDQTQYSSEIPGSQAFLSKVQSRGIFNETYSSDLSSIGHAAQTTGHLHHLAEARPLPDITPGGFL
Test Protocol: DRE-Luciferase Reporter Assay, Hepa1.6 (agonist)
Type: cell-based, murine
Assay Conditions: Hepa1.6, Table 3; read-out: DRE-Luc Hepa1.6 - Agonist: Average EC50
pEC50: −log10 of the molar value.
Measure: pEC50

* O=c1cc(-c2csc(Nc3cccc(C(F)(F)F)c3)n2)cc[nH]1 | < 6.00

// pEC50 lookup, key: Nc1ccccc1-c1csc(Nc2cccc(C(F)(F)F)c2)n1
> 8.00

Ok, now N#Cc1cccc(-c2noc(Nc3cccc(C(F)(F)F)c3)n2)c1
< 6.00

Ok, now O=c1cccc(-c2csc(Nc3cccc(C(F)(F)F)c3)n2)[nH]1
> 8.00

Ok, now O=C(O)c1cccc(/N=N/c2cccc(-c3csc(Nc4cccc(C(F)(F)F)c4)n3)c2)c1
< 6.00

====

Listing: EC50 of selected compounds
Test Target: AHR (Homo sapiens, UniProt P35869)
Construct: endogenous in cells; host or cells: HepG2 (human), transfected with a DRE-luciferase reporter only
Sequence (P35869 11-848): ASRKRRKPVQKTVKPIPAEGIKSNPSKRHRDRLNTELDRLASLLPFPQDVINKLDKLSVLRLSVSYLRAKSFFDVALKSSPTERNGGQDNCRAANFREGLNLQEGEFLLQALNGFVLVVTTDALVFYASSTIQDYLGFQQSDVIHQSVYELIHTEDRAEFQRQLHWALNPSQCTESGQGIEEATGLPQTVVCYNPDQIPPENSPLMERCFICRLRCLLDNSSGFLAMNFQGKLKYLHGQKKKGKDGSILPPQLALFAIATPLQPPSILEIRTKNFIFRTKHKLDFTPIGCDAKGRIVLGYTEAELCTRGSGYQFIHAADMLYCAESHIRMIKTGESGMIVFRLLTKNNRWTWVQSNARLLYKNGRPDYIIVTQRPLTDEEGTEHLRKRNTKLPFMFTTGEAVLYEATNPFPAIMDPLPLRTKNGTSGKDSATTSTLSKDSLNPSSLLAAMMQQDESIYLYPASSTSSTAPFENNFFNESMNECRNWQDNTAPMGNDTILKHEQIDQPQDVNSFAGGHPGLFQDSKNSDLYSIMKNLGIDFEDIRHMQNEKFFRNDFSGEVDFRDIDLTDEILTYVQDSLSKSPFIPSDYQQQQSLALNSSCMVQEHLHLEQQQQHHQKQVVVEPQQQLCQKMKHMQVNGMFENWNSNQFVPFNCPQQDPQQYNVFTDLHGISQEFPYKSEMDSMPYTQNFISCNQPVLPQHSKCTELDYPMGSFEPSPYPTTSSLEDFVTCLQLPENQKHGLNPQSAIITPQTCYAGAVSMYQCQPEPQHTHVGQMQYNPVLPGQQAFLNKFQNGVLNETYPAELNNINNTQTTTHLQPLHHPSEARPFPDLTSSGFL
Test Protocol: DRE-Luciferase Reporter Assay, HepG2 (agonist)
Format: cell-based
Assay Conditions: HepG2, Table 3; read-out: DRE-Luc HepG2 - Agonist: Average EC50

Field: example entries. Status: answers known.
• N#Cc1cccc(-c2noc(Nc3cccc(C(F)(F)F)c3)n2)c1 [I-157] = 100 to 1000 nM
• [O-][n+]1cccc(-c2noc(Nc3cccc(C(F)(F)F)c3)n2)c1 [I-150] = > 1000 nM
• COC(=O)c1cc(-c2csc(Nc3cccc(C(F)(F)F)c3)n2)c[n+]([O-])c1 [I-127] = 100 to 1000 nM
• Fc1ccc(-c2csc(Nc3cccc(C(F)(F)F)c3)n2)cc1/N=N/c1cc(-c2csc(Nc3cccc(C(F)(F)F)c3)n2)ccc1F [I-171] = > 1000 nM
• Nc1ccnc(-c2csc(Nc3cccc(C(F)(F)F)c3)n2)c1 [I-168] = > 1000 nM

// EC50 lookup, key: [O-][n+]1cccc(-c2cc(Nc3cccc(C(F)(F)F)c3)on2)c1 [I-140]
> 1000 nM

Ok, now C[N+]1(C)CCN(C(=O)c2cccc(Nc3nc(-c4cccc([N+](=O)[O-])c4)cs3)c2)CC1 [I-88]
> 1000 nM

Ok, now C[N+]1(C)CCN(C(=O)c2cccc(Nc3nc(-c4ccc[n+]([O-])c4)cs3)c2)CC1 [I-159]
> 1000 nM

====

Test Target: AHR (Homo sapiens)
Construct: endogenous in cells; host or cells: HepG2 (human), transfected with a DRE-luciferase reporter only
Test Protocol: DRE-Luciferase Reporter Assay, HepG2 (agonist)
Type: cell-based
Assay Conditions: HepG2, Table 2; read-out: DRE-Luc HepG2 - Agonist: Average EC50
pEC50: −log10 of the molar value.
Measure: pEC50

Field: example entries. Status: answers known.
* FC(F)(F)c1cccc(Nc2ncc(-c3cccc(Cl)c3)o2)c1 [I-59] | > 8.00
* C[N+](C)(CCO)CCCNC(=O)N(c1cccc(C(F)(F)F)c1)c1nc(-c2cccc(Cl)c2)cs1 [I-26] | 7.00 to 8.00
* O=C(O)c1cccc(-c2csc(Nc3cccc(C(F)(F)F)c3)n2)c1 [I-33] | 6.00 to 7.00

// pEC50 lookup, key: FC(F)(F)c1cccc(Nc2nc(-c3ccc4cc[nH]c4c3)cs2)c1 [I-23]
> 8.00

Ok, now FC(F)(F)c1cccc(Nc2cc(-c3cccc(Cl)c3)cs2)c1 [I-61]
6.00 to 7.00

Ok, now Oc1ccc(-c2cnc(Nc3ccc(C(F)(F)F)cc3)o2)cc1 [I-67]
< 6.00

Ok, now C[N+](C)(C)CCNC(=O)Nc1cccc(-c2csc(Nc3cccc(C(F)(F)F)c3)n2)c1 [I-47]
< 6.00

Ok, now C[N+](C)(CCNC(=O)N(c1cccc(C(F)(F)F)c1)c1nc(-c2cccc(Cl)c2)cs1)CCNC(=O)N(c1cccc(C(F)(F)F)c1)c1nc(-c2cccc(Cl)c2)cs1 [I-2]
> 8.00

Ok, now C[N+](C)(CO)CCNC(=O)N(c1cccc(C(F)(F)F)c1)c1nc(-c2cccc(C#N)c2)cs1 [I-16]
> 8.00

Ok, now N=C(N)c1cccc(-c2csc(Nc3cccc(C(F)(F)F)c3)n2)c1 [I-44]
6.00 to 7.00

Ok, now C[N+]1(C)CCN(C(=O)c2cccc(-c3csc(Nc4cccc(C(F)(F)F)c4)n3)c2)CC1 [I-53]
< 6.00

Ok, now NC(=O)c1cncc(-c2csc(Nc3cccc(C(F)(F)F)c3)n2)c1 [I-17]
> 8.00

Ok, now CN1CCN(C(=O)c2cccc(-c3csc(Nc4cccc(C(F)(F)F)c4)n3)c2)CC1 [I-48]
< 6.00
